Target: Calmodulin-1 (Homo sapiens) (UniProt P0DP23)
Assay: calcium-bound CALM1 binders on microarrays, profiling panel, artefact control for SMM control-protein annotation, biochemical, small-molecule microarray, Cy5-labelled CALM1, plus calcium (AID 1112);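 also: score merges spot fluorescence with signal to noise from triplicate slides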
Conditions: Cy5-CALM1 binding fluorescence, higher = more signal
Field: class. Source value: composite z-score. Ranges: low bracket = under -0.1, middle bracket = from -0.1 up to 0.4, high bracket = 0.4 and over

# COMPOUND, CAT
records = [
    ("O=C(CS)NCCCCCCNC(=O)[C@@H]1C[C@@H]2C(=O)NCC(=O)N2[C@@H]1c1ccc(O)cc1", "high bracket"),
    ("CCOC(=O)C[C@H]1[C@H](OC(=O)c2ccc(-c3ccccc3)cc2)[C@@H](NC(=O)CC(C)C)c2cc(OCCCO)ccc2N1C(=O)c1ccccc1", "high bracket"),
    ("CC(C)(C)OC(=O)CC[C@]12N=C(c3ccc(OCCCO)cc3)O[C@H]1c1ccccc1N(Cc1ccccc1)C2=O", "middle bracket"),
    ("COc1ccc(NC(=O)O[C@H]2[C@@H]3OC(=O)[C@H](Cc4cccc(Br)c4)C/C=C/C[C@@H](Cc4cccc(Br)c4)C(=O)O[C@H]3[C@@H](OC)O[C@@H]2CO)cc1", "middle bracket"),
    ("C=CCNC(=O)[C@@H]1[C@H]2C(=O)O[C@H](c3ccccc3)[C@H](c3ccccc3)N2[C@H](c2ccc(O)cc2)[C@@]12C(=O)Nc1ccc(C#CCC(C(=O)OC)C(=O)OC)cc12", "middle bracket"),
    ("Cc1ccccc1C(O)C1C=CC2C(=O)N(c3ccccc3)C(=O)C2N1Nc1ccc([N+](=O)[O-])cc1 (configuration not stated)", "high bracket"),
    ("COCCOC(=O)N1C(=O)[C@@]2(c3cc(C#CCCO)ccc31)[C@H](c1ccccc1OCCO)N1[C@H](c3ccccc3)[C@H](c3ccccc3)OC(=O)[C@H]1[C@@H]2C(=O)N1CCCCCCC1", "high bracket"),
    ("COCCOC(=O)N1C(=O)[C@@]2(c3cc(C#CCNC(N)=O)ccc31)[C@H](c1ccc(OCCO)cc1)N1[C@H](c3ccccc3)[C@H](c3ccccc3)OC(=O)[C@H]1[C@@H]2C(=O)NC[C@H](O)c1ccccc1", "middle bracket"),
    ("CO[C@H]1O[C@H](CO)[C@@H](OC(=O)Nc2ccc(C#N)cc2)[C@@H]2OC(=O)[C@H](Cc3cccc(Br)c3)C/C=C/C[C@@H](Cc3cccc(Br)c3)C(=O)O[C@@H]12", "low bracket"),
    ("CC1(C)C(=O)C(c2ccccc2)=C2CN3C(=O)N(CCc4ccccc4)C(=O)C3(Cc3ccc(F)cc3)C=C21 (configuration not stated)", "high bracket"),
    ("COc1cc2c(cc1O)C(c1cccs1)N(Cc1sc3ccccc3c1Cl)CC2 (configuration not stated)", "middle bracket"),
    ("C[C@@]12COC[C@]13C=C(Br)[C@H](C2)[C@@]1(CO1)C3=O", "low bracket"),
    ("O=C1O[C@H](c2ccccc2)[C@H](c2ccccc2)N2[C@H]1[C@@H](C(=O)Nc1nc3ccccc3s1)[C@]1(C(=O)Nc3ccc(C#CC4=CCCCC4)cc31)[C@H]2c1ccc(O)cc1", "middle bracket"),
    ("COCCCNC(=O)[C@@]1(c2ccc([N+](=O)[O-])cc2)CC(=O)N(C(C)C)[C@@H]1c1ccc(CO)cc1", "low bracket"),
    ("Cc1cccc([C@H]2C[C@H]3C(Br)=C[C@@H]2C(=O)[C@]32CO2)c1", "low bracket"),
    ("COC(=O)C(CC#Cc1ccc2c(c1)[C@]1(C(=O)N2)[C@H](c2ccc(OCCO)cc2)N2[C@H](c3ccccc3)[C@H](c3ccccc3)OC(=O)[C@H]2[C@@H]1C(=O)N1CCN(c2ncccn2)CC1)C(=O)OC", "high bracket"),
    ("COC(=O)C1=CC(CCCO)=CC(C)N(Cc2cccc(OC(F)(F)F)c2)C=C1C(=O)OC (configuration not stated)", "high bracket"),
    ("C=CCC(OC(C)=O)[C@@H]1[C@@H](N(Cc2ccc(-c3cccc(C(F)(F)F)c3)o2)C(=O)Cc2ccc(OC)cc2)c2cc(OCCCO)ccc2N1C(=O)Cc1ccc2ccccc2c1 (some centres not stated)", "low bracket"),
    ("CC(=O)n1cc(C(O)C2C=CC3C(=O)N(c4ccccc4)C(=O)C3N2Nc2ccc(C(C)C)cc2)c2ccccc21 (configuration not stated)", "high bracket"),
    ("[N-]=[N+]=NCc1ccccc1[C@H]1OC(c2ccc(OCCCO)cc2)=N[C@@]1(Cc1ccccc1)C(=O)NCCN1CCOCC1", "low bracket"),
    ("Cc1cccc([C@H]2C[C@H]3C(I)=C[C@@H]2C(=O)[C@]32CO2)c1", "low bracket"),
    ("COc1ccc([Si](C)(C)[C@@H]2[C@@H](CCn3cc([C@H](O)c4ccccc4)nn3)O[C@]3(C(=O)N(Cc4cccc(N5C(=O)c6cccc7cccc5c67)c4)c4ccccc43)[C@H]2C)cc1", "middle bracket"),
    ("CCOC(=O)C1=CC[C@@H](c2ccccc2)N(S(=O)(=O)c2ccc(C)cc2)[C@H]1C=Cc1ccccc1", "low bracket"),
    ("CN1C(=O)C2C=CC(C(O)c3cc(C(F)(F)F)cc(C(F)(F)F)c3)N(NC(=O)OC(C)(C)C)C2C1=O (configuration not stated)", "high bracket"),
    ("O=C1C2C=CC(C(O)c3cccc(O)c3)N(Nc3ccccc3)C2C(=O)N1c1ccccc1 (configuration not stated)", "middle bracket"),
    ("COc1ccc([Si](C)(C)[C@@H]2[C@@H](CC(=O)N3Cc4ccccc4C[C@H]3CO)O[C@]3(C(=O)N(Cc4ccc(N5CCC5=O)cc4)c4ccccc43)[C@H]2C)cc1", "middle bracket"),
    ("CC(C)C[C@@H]1NC(=O)[C@@]23C(=O)N[C@@H](Cc4ccccc4)C2[C@H](C)[C@@]2(C)O[C@H]2C3/C=C/C/C=C\\CNC(=O)[C@@H](C)NC1=O (some centres not stated)", "low bracket"),
]
